// provenance: ChEMBL document CHEMBL3763143

- assay-method-text: Intrinsic clearance in human liver microsomes assessed per mg of protein
- Type: ADME
- test-conditions: read-out: CLH
value-type: microsomal CLint (µL/min/mg)
Write the value in µL/min/mg as a bare number.

Cn1c(SCCCN2CCOC(c3ccc(C(F)(F)F)cc3)C2)nnc1-c1ccc(-c2ncco2)cc1 (stereo in doubt; 34) = 668

-- ask Name the recorded microsomal CLint for Cn1c(SCCCN2CCOC(c3ccc(C(F)(F)F)cc3)C2)nnc1-c1ccc(C(N)=O)cc1 (stereo in doubt; 26) .
-- reply 63.2

-- ask Name the recorded microsomal CLint for Cc1ncoc1-c1nnc(SCCCN2CCOC(c3ccc(F)cc3)C2)n1C (stereo in doubt; 7) .
-- reply 21.7

-- ask Name the recorded microsomal CLint for Cc1ncoc1-c1nnc(SCCCN2CCOC(c3ccc(C(F)(F)F)cc3)C2)n1C (stereo in doubt; 9) .
-- reply 40
